- System: HIV strain A
- EXPERIMENT SUMMARY: Cellular anti-HIV assay, clinically isolated mutant strain A
- Type: cell-based
- CONDITION INFO: FR=EC50 (mutant strain)/EC50 (HIV-1 strain LAI)
REPORTED ENDPOINT: A (FR value towards mutant A)
Give bare numbers.

# count of solved cases: 2
Request: Reported A (FR value towards mutant A), compound Cc1cccc(C)c1OCC(=O)N[C@@H](Cc1ccccc1)[C@H](O)CN(CC(C)C)S(=O)(=O)c1ccc(-c2cc[nH]n2)cc1 [Compound 24] : ____
Result: 1.1

Request: Look up A (FR value towards mutant A): Cc1cc(-c2nc(-c3ccc(S(=O)(=O)N(CC(C)C)CC(O)C(Cc4ccccc4)NC(=O)OC4COC5OCCC45)cc3)co2)no1 (stereo not drawn) [Compound 46]
Result: 182

Now look at this entry.
Request: For the compound shown here, CCCc1nc(-c2ccc(S(=O)(=O)N(CC(C)C)CC(O)C(Cc3ccccc3)NC(=O)OC3COC4OCCC34)cc2)co1 (stereo not drawn) [Compound 40] , give the reported A (FR value towards mutant A).
Result: 5.0

###

Consider the following compounds; for each one, report its D (FR towards mutant D).
- System: HIV strain D
- EXPERIMENT SUMMARY: Cellular anti-HIV assay, clinically isolated mutant strain D
- Assay type: cell-based
- CONDITION INFO: FR=EC50 (mutant strain)/EC50 (HIV-1 strain LAI)
- Protocol: HIV- or mock-infected MT4 cells were incubated for five days in the presence of various concentrations of the inhibitor. […] Cell viability is measured by measuring the concentration of MTT, a yellow, water soluble tetrazolium dye that is converted to a purple, water insoluble formazan in the mitochondria of living cells only. Upon solubilization of the resulting formazan crystals with isopropanol, the absorbance of the solution is monitored at 540 nm. […]
Numbers only.

Request: Any idea what its D (FR towards mutant D) is? The compound is COc1cccc(-c2nc(-c3ccc(S(=O)(=O)N(CC(C)C)CC(O)C(Cc4ccccc4)NC(=O)OC4COC5OCCC45)cc3)co2)c1 (stereo not shown)
Result: 15

Request: Endpoint output: D (FR towards mutant D) of CC(C)CN(CC(O)C(Cc1ccccc1)NC(=O)OC1COC2OCCC12)S(=O)(=O)c1ccc(-c2csc(N)n2)cc1 (stereo not shown) . Value?
Result: 9.3

Request: Query (compound): CC(C)CN(CC(O)C(Cc1ccccc1)NC(=O)OC1COC2OCCC12)S(=O)(=O)c1ccc(-c2coc(-c3ccc([N+](=O)[O-])cc3)n2)cc1 (stereo not shown) ; field requested: D (FR towards mutant D)
Result: 10.2

Now turn to the next compound.
Request: I have this compound here, CC(C)CN(CC(O)C(Cc1ccccc1)NC(=O)OC1COC2OCCC12)S(=O)(=O)c1ccc(-c2coc(-c3ccc(C#N)cc3)n2)cc1 (stereo not shown) , and I need its recorded D (FR towards mutant D).
Result: 16

###

- Tested on: HIV strain C
- EXPERIMENT SUMMARY: Cellular anti-HIV assay, clinically isolated mutant strain C
- Assay type: cell-based
- CONDITION INFO: FR=EC50 (mutant strain)/EC50 (HIV-1 strain LAI)
Can you tell me C (FR towards mutant C) for the items I'm about to list?
Give bare numbers.

Guide cases for C (FR towards mutant C), answers given:
Request: Report C (FR towards mutant C) for `CC(C)CN(C[C@@H](O)[C@H](Cc1ccccc1)NC(=O)O[C@H]1CO[C@H]2OCC[C@H]21)S(=O)(=O)c1ccc(-c2noc(-c3ccco3)n2)cc1` please.
Result: 6.8

Request: Fill in the blank: the reported C (FR towards mutant C) of CC(C)CN(CC(O)C(Cc1ccccc1)NC(=O)OC1COC2OCCC12)S(=O)(=O)c1ccc(-c2csc(N)n2)cc1 (stereo not shown) is ____.
Result: 3.0

Request: Requested field: C (FR towards mutant C). Item: Cc1cc(-c2nc(-c3ccc(S(=O)(=O)N(CC(C)C)CC(O)C(Cc4ccccc4)NC(=O)OC4COC5OCCC45)cc3)co2)no1 (stereo not shown)
Result: 9.1

Moving on to the next compound.
Request: Look up C (FR towards mutant C) for this compound: COc1cccc(-c2nc(-c3ccc(S(=O)(=O)N(CC(C)C)CC(O)C(Cc4ccccc4)NC(=O)OC4COC5OCCC45)cc3)co2)c1 (stereo not shown)
Result: 8.1
